Each recorded value in this set is attributed to ChEMBL document CHEMBL1795312.

assay: Inhibition of farnesyltransferase
Rule: pIC50 under 8 gives N, otherwise Y.

molecule=N#Cc1ccc(Cn2cncc2CCN[C@H]2CCN(CCc3ccccc3)C2=O)cc1 grouplabel=N
molecule=COc1cccc(-c2cc(C#N)ccc2COCc2cncn2Cc2ccc(C#N)cn2)c1 grouplabel=Y
molecule="N#Cc1ccc(Cn2cncc2CN(CCCCc2ccccc2)C2CCN(Cc3ccccc3)C2=O)cc1 (stereo not given)" grouplabel=N

Does pIC50 meet or surpass 8 for `COc1cccc(-c2cc(C#N)ccc2COCc2cncn2Cc2ccc(C#N)nc2)c1` ? Y

Does pIC50 meet or surpass 8 for Cn1cncc1C(OCc1ccc(F)c(C(F)(F)F)c1)c1ccc(C#N)c(-c2ccccc2C(F)(F)F)c1 (stereo not given) ? Y

Does pIC50 meet or surpass 8 for Cc1cccc(-c2cc(C(OCc3ccc(C#N)cc3)c3cncn3C)ccc2C#N)c1C (stereo not given) ? Y

Does pIC50 meet or surpass 8 for `CCOc1cccc(-c2cc(C#N)ccc2COCc2cncn2Cc2ccc(Cl)cc2)c1` ? Y
